Attribution: ChEMBL document CHEMBL1201862

system: XF498; assay: NCI tumour cell line growth inhibition, 48 h
Active and inactive are the calls of the source. No stated cut-off is given here; in the data, active = GI50 up to about 1.1 µM and inactive = higher.
Reported GI50 values follow for various molecules

The following molecules have reported results that may help.
* Cc1ccc(NC(=O)C(=O)C2C(=O)N(c3ccccc3)N=C2N)cc1C (stereo unspecified) | > 100 µM (inactive)
* O=CN/C=C\c1cc(O)ccc1O | 15.4 µM (inactive)
* O=C/C(=C(/Cl)c1ccc(O)cc1)c1ccccc1 | 18.9 µM (inactive)
* Cc1oc2c(C)c(O)c3c(c2c1C1(C)OCCO1)C(=O)C=C(Cl)C3=O | 33.3 µM (inactive)
* O=C(c1ccccc1)c1c(C(=O)c2ccccc2)c(-c2ccccc2)c2c(-c3ccccc3)sc(-c3ccccc3)c2c1-c1ccccc1 | > 100 µM (inactive)
* CCCC(C(=O)OC)C1N/C(=N/C#N)N(Cc2ccccc2)C1=O (stereo unspecified) | > 100 µM (inactive)
* O=C1NC(=O)/C(=N\c2cccc3c(=O)[nH][nH]c(=O)c23)C(c2nc3ccccc3s2)C1=O (stereo unspecified) | 32.1 µM (inactive)
* N#CC12CC3(CCC1CCC1(C2)OCCO1)OCCO3 (stereo unspecified) | > 100 µM (inactive)
* Cn1cnc([N+](=O)[O-])c1Sc1ccccn1 | 36.3 µM (inactive)
* CC(C)=CCc1c(C)cc2cc3c(c(O)c2c1O)C(=O)C=C(O)C3(CC=C(C)C)C/C=C(\C)CO (stereo unspecified) | 16.4 µM (inactive)

# input for lookup
Prompt line: Consider the molecule N=C(N)NS(=O)(=O)c1ccc(NC(=O)c2cccc3c(N)c4ccccc4nc23)cc1 and give its recorded GI50.
Response line: > 100 µM (inactive)

* * *

Reported GI50 values follow for various molecules
tested on: CCRF-CEM; test: NCI tumour cell line growth inhibition, 48 h
Activity calls are given as the source filed them. Cut-off read from the data, not from the text of the source: active = GI50 up to about 1.1 µM and inactive = higher.

* O=C/C(=C(/Cl)c1ccc(O)cc1)c1ccccc1 | 15.2 µM (inactive)
* CC(C)C1CCC(=O)CC1CCCCC1CC(=O)CC1O[Si](C)(C)C(C)(C)C (stereo unspecified) | 0.955 µM (active)

Prompt line: Consider the molecule COc1cccc(/N=N/C(=N/NC(=O)c2ccc(C)cc2)c2ccc(N(CCC#N)CCC#N)cc2OC)c1 and give its recorded GI50.
Response line: > 100 µM (inactive)

Prompt line: Consider the molecule O=C(CC(C(=O)c1ccco1)c1ccsc1)c1ccco1 (stereo unspecified) and give its recorded GI50.
Response line: > 100 µM (inactive)

Prompt line: Consider the molecule CN(C)c1ccc(-c2cc(O)c3ccccc3n2)cc1 and give its recorded GI50.
Response line: > 100 µM (inactive)

Prompt line: Consider the molecule CC12CCC(C/C1=N\NC(N)=O)C2(C)C (stereo unspecified) and give its recorded GI50.
Response line: > 100 µM (inactive)

* * *

system: OVCAR-4; test: NCI tumour cell line growth inhibition, 48 h
The source made the active and inactive calls. Cut-off read from the data, not from the text of the source: active = GI50 up to about 1.1 µM and inactive = higher.
Reported GI50 values follow for various compounds

* Clc1cccc(-c2nc3cccc4c3n2Cc2ncccc2-4)c1 | 36 µM (inactive)
* COc1ccc2c(c1)CCCc1cn[nH]c1-2 | > 100 µM (inactive)
* CC1(C)CCCCCC(C)(CCCO)C1=O (stereo unspecified) | > 100 µM (inactive)

Prompt line: GET GI50 | system: OVCAR-4 | item: C/C=C1\CN2CCc3c([nH]c4ccccc34)C2CC1CCO (stereo unspecified)
Response line: > 100 µM (inactive)

Prompt line: GET GI50 | system: OVCAR-4 | item: COc1ccc(C(O)(c2ccccc2)c2nccc3ccccc23)cc1 (stereo unspecified)
Response line: 11 µM (inactive)

* * *

Reported GI50 values follow for various molecules
test system: UACC-257; experiment: NCI tumour cell line growth inhibition, 48 h
Calls of active or inactive are those of the source. Rule as the data show it: active = GI50 up to about 1.1 µM and inactive = higher.

The following molecules have reported results that may help.
• CC(C)=Cc1cc2c(cc1O)CCC1C2CC[C@@]2(C)C1CC[C@@H]2O (some centres undefined) = 14.9 µM (inactive)
• COC(=O)NCCc1n[nH]c2c1C(=O)C=C(N1CCOCC1)C2=O = > 100 µM (inactive)
• CC(Cl)CN1c2ccccc2Sc2ccc(Cl)cc21 (centres undefined) = > 10 µM (inactive)

Prompt line: Consider the molecule Oc1cc2c(cc1C(c1ccc3c(c1)OCO3)N1CCN(C(c3ccc4c(c3)OCO4)c3cc4c(cc3O)OCO4)CC1)OCO2 (centres undefined) and give its recorded GI50.
Response line: 17.6 µM (inactive)

* * *

system: U-251; assay: NCI tumour cell line growth inhibition, 48 h
Calls of active or inactive are those of the source. Cut-off read from the data, not from the text of the source: active = GI50 up to about 1.1 µM and inactive = higher.
// one of active, inactive, no free text

Would you please look over these solved cases?
• COCCCCCC(=O)CP(=O)(OC)OC = inactive
• S=C(Nc1cccc(Cl)c1)Nc1ccccn1 = inactive
• CC(C)=CCc1c(C)cc2cc3c(c(O)c2c1O)C(=O)C=C(O)C3(CC=C(C)C)C/C=C(\C)CO (stereo not drawn) = inactive

Prompt line: Fill in: this test's call for C/C(=N\NC(=O)c1cccnc1)c1cccc(/C(C)=N/NC(=O)c2cccnc2)n1.CC(=O)[O-].CC(=O)[O-].[Zn+2] is ___
Response line: active

Prompt line: Fill in: this test's call for COc1cc(C2c3cc4c(cc3OC(NN=C(C)C)C2C)OCO4)cc(OC)c1O (stereo not drawn) is ___
Response line: inactive

Prompt line: Fill in: this test's call for Cc1ccsc1/C(S)=N\c1ccc(Cl)c(/C=N/OC(C)(C)C)c1 is ___
Response line: inactive

Prompt line: Fill in: this test's call for O=C(/C=C/c1ccc(Cl)cc1)c1ccc(Cl)s1 is ___
Response line: inactive

Prompt line: Fill in: this test's call for c1ccc(/N=C2\c3ccccc3C3=NCCCN32)cc1 is ___
Response line: inactive

Prompt line: Fill in: this test's call for O=C1C2=C(C3=NCCc4c[nH]c1c43)C1(C=C(Br)C(O)C(Br)=C1)CCN2 (stereo not drawn) is ___
Response line: inactive

* * *

Reported GI50 values follow for various compounds
system: CAKI-1; experiment: NCI tumour cell line growth inhibition, 48 h
Activity calls are given as the source filed them. Cut-off read from the data, not from the text of the source: active = GI50 up to about 1.1 µM and inactive = higher.

* COP(=O)(OC)[C@@](O)(c1ccccc1)[C@@H](O)[C@@H](O)c1ccccc1 | > 100 µM (inactive)
* Cn1c(=O)c2nc[nH]c2n(C)c1=O [THEOPHYLLINE] | 22.9 µM (inactive)
* CCN(CC)CCC1(C2CCCCC2)CCC(=O)NC1=O (stereo unspecified) | > 100 µM (inactive)

Prompt line: GET GI50 | system: CAKI-1 | item: O=c1[nH]/c(=C/c2ccc(OCc3ccccc3)cn2)c(=O)[nH]/c1=C/c1ccc([N+](=O)[O-])cc1
Response line: > 37.8 µM (inactive)

Prompt line: GET GI50 | system: CAKI-1 | item: CCOC(=O)N1CCN(c2c(C)nc(C)nc2O)CC1
Response line: > 100 µM (inactive)

Prompt line: GET GI50 | system: CAKI-1 | item: CC(=O)c1sc2c(c1OC(=O)c1ccccc1)c(=O)n(-c1ccccc1)c(=S)n2-c1ccccc1
Response line: 8.43 µM (inactive)

* * *

tested on: TK-10; test: NCI tumour cell line growth inhibition, 48 h
Active and inactive are the calls of the source. Cut-off read from the data, not from the text of the source: active = GI50 up to about 1.1 µM and inactive = higher.
// one of active, inactive, no free text

• Cc1cccc(NC2=NC(=O)C(CC(=O)Nc3ccccc3Cl)S2)c1 (stereo unspecified) = inactive
• COc1ccc(C2C3=C(COC3=O)Oc3cc4c(cc32)OCO4)cc1 (stereo unspecified) = inactive
• N#Cc1c(O)cc(=O)n2c1[nH]c1ccccc12 = inactive
• CCn1c2c(c3ccccc3c1=O)C(=O)c1ccccc1-2 = inactive

Prompt line: Fill in: this test's call for [BH3-][P+]1(CC[P@@+]([BH3-])(c2ccccc2)c2ccccc2OC)[C@@H](C)[C@@H](O)[C@H](O)[C@@H]1C (stereo partly specified) is ___
Response line: inactive

Prompt line: Fill in: this test's call for CN(C)c1ccc(-c2cc(O)c3ccccc3n2)cc1 is ___
Response line: inactive

Prompt line: Fill in: this test's call for CCOC(=O)/C(C(=O)Nc1ccc(F)cc1)=C(/N)N1CCCC1 is ___
Response line: inactive

Prompt line: Fill in: this test's call for C/C(=N\NC(=O)c1cccnc1)c1cccc(/C(C)=N/NC(=O)c2cccnc2)n1.CC(=O)[O-].CC(=O)[O-].[Zn+2] is ___
Response line: inactive

Prompt line: Fill in: this test's call for CNC(=S)N/N=C1\CC(c2ccccc2)Oc2ccccc21 (stereo unspecified) is ___
Response line: inactive

Prompt line: Fill in: this test's call for O=C(/C=C/c1ccc(Cl)cc1)c1ccc(Cl)s1 is ___
Response line: inactive

* * *

test system: SF-539; assay: NCI tumour cell line growth inhibition, 48 h
Calls of active or inactive are those of the source. No stated cut-off is given here; in the data, active = GI50 up to about 1.1 µM and inactive = higher.
Observation type: GI50

The following compounds have reported results that may help.
• CC(C)=CCc1c(C)cc2cc3c(c(O)c2c1O)C(=O)C=C(O)C3(CC=C(C)C)C/C=C(\C)CO (stereo not drawn) = 39.1 µM (inactive)
• COc1cc2c[n+](C)c3c4cc5c(cc4ccc3c2cc1OC)OCO5 [NITIDINE CHLORIDE] = 1.78 µM (inactive)

# input for lookup
Prompt line: Consider the compound OCc1ccc(-c2ccc(-c3ccc(CO)s3)o2)s1 and give its recorded GI50.
Response line: 14.2 µM (inactive)
